Quick list: EC50, CreLuc reporter, 0.5% hP per entry.
# Assay target: T1, human GIP receptor (human, UniProt P48546 22-466)
# T1 sequence (looked up): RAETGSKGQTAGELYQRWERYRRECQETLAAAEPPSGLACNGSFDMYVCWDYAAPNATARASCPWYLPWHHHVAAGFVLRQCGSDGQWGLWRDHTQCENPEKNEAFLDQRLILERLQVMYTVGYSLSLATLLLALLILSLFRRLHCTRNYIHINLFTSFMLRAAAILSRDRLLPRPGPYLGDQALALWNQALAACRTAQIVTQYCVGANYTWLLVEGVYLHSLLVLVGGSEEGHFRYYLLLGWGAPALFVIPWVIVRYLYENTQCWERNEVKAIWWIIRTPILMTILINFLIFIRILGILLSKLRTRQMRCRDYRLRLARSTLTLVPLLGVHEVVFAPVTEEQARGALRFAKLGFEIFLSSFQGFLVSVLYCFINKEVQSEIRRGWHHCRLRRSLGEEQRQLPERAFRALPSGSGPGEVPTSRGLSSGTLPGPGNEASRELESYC
# Experiment description: cell-based or functional assay
*1 amine or outer side, *2 acyl side, *3 side chain or, on linkers, in order; H or OH if unused. Where no end group is shown, it is not given here. Side-chain parts run from the residue outwards. [ ]: non-standard residue; d: D form. The star is where a group is joined. C18 diacid = O=C(O)CCCCCCCCCCCCCCCCC(=O)*; γGlu = O=C(O)[C@H](CCC(=O)[*:2])N[*:1]; εLys = N[C@@H](CCCCN[*:1])C(=O)[*:2]; Aib = CC(C)(N)C(=O)O
Please state the figure in nM; there is no need to write the unit.

# annotated cases, reported EC50, CreLuc reporter, 0.5% hP shown
YXEGTFTSDYSIXLDKQAQXAFVRHLINKXTRQRY (Aib at 2, 20, 30; aMeL at 13; Lys29 epsilon-amino acylated with C18DA-gGlu-gGlu-gGlu-gGlu-gGlu-gGlu-eLys; C-terminal amide) [Compound 67]: 0.1
Y[Aib]EGTFTSDYSI[Aib]LEKQAQ[Aib]AFVRHLINK([εLys-γGlu-γGlu-γGlu-γGlu-γGlu-γGlu-γGlu-C18 diacid])ITRQRY-NH2 [Compound 18]: 0.2

Please examine the following record next.
Reported EC50, CreLuc reporter, 0.5% hP, binder YXEGTFTSDYSIXLEKQEQXAFVRHLINKXTRQRY (Aib at 2, 13, 20, 30; Lys29 epsilon-amino acylated with C18DA-gGlu-gGlu-gGlu-gGlu-gGlu-gGlu-eLys; C-terminal amide) [Compound 36] : ____
8.8
